Biological target: T1, recombinant human TfR (2474-TR, R&D Systems), biotinylated (human, UniProt P02786 89-760, biotinylated with EZ-Link NHS-PEG4-Biotinylation Kit)
T1 construct: Bought protein; also called immobilized recombinant human TfR; biotinylated human TfR
T1 sequence (P02786 89-760 limits assumed): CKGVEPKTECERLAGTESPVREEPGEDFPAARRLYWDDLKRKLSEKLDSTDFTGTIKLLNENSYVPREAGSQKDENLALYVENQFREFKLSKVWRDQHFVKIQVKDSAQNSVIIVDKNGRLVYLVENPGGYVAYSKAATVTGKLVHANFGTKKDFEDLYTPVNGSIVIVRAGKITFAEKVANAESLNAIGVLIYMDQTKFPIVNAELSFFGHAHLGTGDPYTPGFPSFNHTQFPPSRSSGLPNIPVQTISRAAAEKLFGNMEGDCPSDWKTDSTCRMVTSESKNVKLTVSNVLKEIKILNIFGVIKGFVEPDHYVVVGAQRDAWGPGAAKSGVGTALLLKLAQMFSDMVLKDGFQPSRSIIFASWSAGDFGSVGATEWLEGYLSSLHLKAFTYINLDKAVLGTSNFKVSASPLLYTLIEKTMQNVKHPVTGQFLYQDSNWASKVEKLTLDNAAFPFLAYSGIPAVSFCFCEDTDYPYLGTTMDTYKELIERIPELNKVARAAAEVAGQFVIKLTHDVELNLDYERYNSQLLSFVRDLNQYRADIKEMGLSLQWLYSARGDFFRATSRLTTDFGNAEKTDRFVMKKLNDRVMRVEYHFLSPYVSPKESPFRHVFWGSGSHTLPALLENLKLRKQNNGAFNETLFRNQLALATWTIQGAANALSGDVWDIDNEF
Experiment: SPR (Biacore), biotinylated human TfR captured on an SA chip, VHH injected, 1:1 dissociation fit, pH 5.5
Please provide measured koff for the entries that follow.
Numbers only, in s⁻¹.

# example entries with known answers
binder	unit	koff
BBB00772 (VHH, Histidine mutant) VHH: EVQLVESGGGLVQAGGSLRLSCAASGSIFSINAMGWYRQAPGKQRELVAVITSGGSTIYADSVKGRFTISRDNAENTVYLQMNSLRPEDTAVYYCNAHVGLKVPTIQELSLGFGHWGQGTLVTVSS	s⁻¹	0.0141
BBB00758 (VHH, also called histidine mutant of BBB00533) VHH: EVQLVESGGGLVQAGGSLRLSCAASGSIFSINAMGWYRQAPGKQRELVAVITSGGSTIYADSVKGRFTISRDNAENTVYLQMNSLRPEDTAVYYCNAHVGHKVPTIQELSLGFGSWGQGTLVTVSS	s⁻¹	0.0657
BBB00771 (VHH, Histidine mutant) VHH: EVQLVESGGGLVQAGGSLRLSCAASGSIFSINAMGWYRQAPGKQRELVAVITSGGSTIYADSVKGRFTISRDNAENTVYLQMNSLRPEDTAVYYCNAHVGLKVPTIQELSLGFHSWGQGTLVTVSS	s⁻¹	0.0183
BBB00764 (VHH, Histidine mutant) VHH: EVQLVESGGGLVQAGGSLRLSCAASGSIFSINAMGWYRQAPGKQRELVAVITSGGSTIYADSVKGRFTISRDNAENTVYLQMNSLRPEDTAVYYCNAHVGLKVPTIHELSLGFGSWGQGTLVTVSS	s⁻¹	0.0206
BBB00739 (VHH, also called histidine mutant of BBB00533) VHH: EVQLVESGGGLVQAGGSLRLSCAASGSHFSINAMGWYRQAPGKQRELVAVITSGGSTIYADSVKGRFTISRDNAENTVYLQMNSLRPEDTAVYYCNAHVGLKVPTIQELSLGFGSWGQGTLVTVSS	s⁻¹	0.0223

Could you report koff for every entry in the following list?
1. BBB00756 (VHH, also called histidine mutant of BBB00533) VHH: EVQLVESGGGLVQAGGSLRLSCAASGSIFSINAMGWYRQAPGKQRELVAVITSGGSTIYADSVKGRFTISRDNAENTVYLQMNSLRPEDTAVYYCNAHHGLKVPTIQELSLGFGSWGQGTLVTVSS
2. BBB00738 (VHH, Histidine mutant) VHH: EVQLVESGGGLVQAGGSLRLSCAASGHIFSINAMGWYRQAPGKQRELVAVITSGGSTIYADSVKGRFTISRDNAENTVYLQMNSLRPEDTAVYYCNAHVGLKVPTIQELSLGFGSWGQGTLVTVSS
3. BBB00745 (VHH, Histidine mutant) VHH: EVQLVESGGGLVQAGGSLRLSCAASGSIFSINAHGWYRQAPGKQRELVAVITSGGSTIYADSVKGRFTISRDNAENTVYLQMNSLRPEDTAVYYCNAHVGLKVPTIQELSLGFGSWGQGTLVTVSS

1: 0.019; 2: 0.0171; 3: 0.0161
